experiment: Hemolytic activity in sheep RBC incubated for 30 mins; type: ADME, cell-based, Ovis aries, Erythrocyte; conditions: sheep red blood cells
Square brackets hold non-standard residues; d marks the D form. Peptide text beside a SMILES is read from it. Orn = NCCC[C@H](N)C(=O)O
Reported Endpoint: HC50 at 0.5 h

1. CC(C)C[C@@H]1NC(=O)[C@H](CCCN)NC(=O)[C@H](C(C)C)NC(=O)[C@@H]2CCCN2C(=O)[C@@H](Cc2ccccc2)NC(=O)[C@H](CC(C)C)NC(=O)[C@H](CCCN)NC(=O)[C@H](C(C)C)NC(=O)[C@@H]2CCCN2C(=O)NC(=O)[C@H](Cc2ccccc2)NC(=O)[C@H](CCCN)NC1=O: 90 to 100 µg/mL
2. CC(C)C[C@@H]1NC(=O)[C@H](CCCN)NC(=O)[C@H](C(C)C)NC(=O)[C@H](CCCCN)NC(=O)[C@@H](Cc2ccccc2)NC(=O)[C@H](CC(C)C)NC(=O)[C@@H](CCCN)NC(=O)[C@H](C(C)C)NC(=O)[C@H](CCCCN)NC(=O)[C@@H](Cc2ccccc2)NC1=O: > 200 µg/mL
3. CC(C)C[C@@H]1NC(=O)[C@H](CCCN)NC(=O)[C@H](C(C)C)NC(=O)[C@@H]2CCCN2C(=O)[C@@H](Cc2ccccc2)NC(=O)[C@H](CC(C)C)NC(=O)[C@H](CCCN)NC(=O)[C@H](C(C)C)NC(=O)[C@@H]2CCCN2C(=O)[C@@H](Cc2ccccc2)NC1=O (cyclo(L[dF]PV[Orn]L[dF]PV[Orn])): 25 to 35 µg/mL
4. CC(C)C[C@@H]1NC(=O)[C@H](CCCN)NC(=O)[C@H](C(C)C)NC(=O)[C@@H]2CCCN2C(=O)[C@@H](CCCCN)NC(=O)[C@H](CC(C)C)NC(=O)[C@@H](CCCN)NC(=O)[C@H](C(C)C)NC(=O)[C@@H]2CCCN2C(=O)[C@@H](CCCCN)NC1=O: 150 to 200 µg/mL
5. CC(C)C[C@@H]1NC(=O)[C@H](CCCN)NC(=O)[C@H](C(C)C)NC(=O)[C@@H]2CCCN2C(=O)[C@@H](Cc2ccccc2)NC(=O)[C@H](CC(C)C)NC(=O)[C@H](CCCN)NC(=O)[C@H](C(C)C)NC(=O)[C@@H]2CCCN2C(=O)NC(=O)[C@H](Cc2ccccc2)NC(=O)[C@H](CCCCN)NC1=O: > 100 µg/mL

* * *

experiment: Therapeutic index, ratio of HD100 for hemolytic activity in human erythrocytes to MIC against Staphylococcus aureus ATCC 29213; format: toxicity, cell-based; conditions: read-out: TI
Square brackets hold non-standard residues; d marks the D form. Peptide text beside a SMILES is read from it. Orn = NCCC[C@H](N)C(=O)O
Reported Endpoint: selectivity ratio

1) CC(C)C[C@@H]1NC(=O)[C@H](CCCN)NC(=O)[C@H](C(C)C)NC(=O)[C@@H]2CCCN2C(=O)[C@@H](Cc2ccccc2)NC(=O)[C@H](CC(C)C)NC(=O)[C@H](CCCN)NC(=O)[C@H](C(C)C)NC(=O)[C@H](CCCN)NC(=O)[C@H](CC(C)C)NC(=O)[C@H]2CC[C@H](OCc3ccccc3)[C@@H](CNC(=O)[C@H](C(C)C)NC(=O)[C@H](CCCN)NC1=O)O2: 15.6
2) CC(C)C[C@@H]1NC(=O)[C@H](CCCN)NC(=O)[C@H](C(C)C)NC(=O)[C@@H]2CCCN2C(=O)[C@@H](Cc2ccccc2)NC(=O)[C@H](CC(C)C)NC(=O)[C@H](CCCN)NC(=O)[C@H](C(C)C)NC(=O)[C@@H]2CCCN2C(=O)[C@@H](Cc2ccccc2)NC1=O (cyclo(L[dF]PV[Orn]L[dF]PV[Orn])): 15.6
